test system: OVCAR-5; test: NCI tumour cell line growth inhibition, 48 h
Activity calls are given as the source filed them. Cut-off read from the data, not from the text of the source: active = GI50 up to about 1.1 µM and inactive = higher.
GI50 values for the compounds below.

{"COMPOUND": "O=Cc1ccc2c(c1)CC1(Cc3ccccc3C1)C2", "GI50": "> 100 µM (inactive)"}
{"COMPOUND": "COc1cccc(NC(=O)CC(=O)NN2C(=O)/C(=C/c3ccc(N(CCC#N)CCC#N)cc3)N=C2c2cc([N+](=O)[O-])ccc2Cl)c1", "GI50": "25.5 µM (inactive)"}
{"COMPOUND": "CCc1c2c([nH]c(=S)c1C#N)CCC2", "GI50": "> 100 µM (inactive)"}
{"COMPOUND": "CCCC(O)c1cn(-c2cccc(S(=O)(=O)O)c2)nn1 (stereo not given)", "GI50": "> 100 µM (inactive)"}
{"COMPOUND": "C=C1C2=C(CCCC2)C(=O)OC12CCCCC2", "GI50": "79.8 µM (inactive)"}
{"COMPOUND": "COC(=O)/C=C\\C(C#N)(C#N)/N=C/c1ccsc1", "GI50": "7.24 µM (inactive)"}
{"COMPOUND": "CC(Oc1ccccc1Cl)C(=O)NN1C(=O)CC(=O)N(c2ccccc2)C1=S (stereo not given)", "GI50": "> 100 µM (inactive)"}
{"COMPOUND": "O=c1[nH]cnc2c1ncn2[C@@H]1C[C@@H]1CO", "GI50": "> 100 µM (inactive)"}
{"COMPOUND": "O=C(N/N=C/c1ccccc1)c1c(-c2cccnc2)cnc2ccccc12", "GI50": "> 100 µM (inactive)"}
{"COMPOUND": "C#CC1(O)CCC2[C@@H]3CCc4cc(Oc5nc(F)nc(-c6c(C)c(C(=O)OCC)n7ccccc67)n5)ccc4C3CC[C@@]21C (stereo not given in full)", "GI50": "> 100 µM (inactive)"}
{"COMPOUND": "COc1ccc(Nc2nc3c(N)cc(C(F)(F)F)cc3nc2-c2ccccc2)cc1", "GI50": "> 100 µM (inactive)"}
{"COMPOUND": "Cc1ccc(S(=O)(=O)NC(CN)C(=O)O)cc1 (stereo not given)", "GI50": "> 100 µM (inactive)"}
{"COMPOUND": "Cc1cccc(N2C(=O)C(=O)C(c3nc4ccccc4s3)/C(=N/NC(=S)NN)C2=O)c1C (stereo not given)", "GI50": "> 100 µM (inactive)"}
{"COMPOUND": "C[n+]1cccc2ccc(OC(=O)c3ccccc3)cc21", "GI50": "> 100 µM (inactive)"}
{"COMPOUND": "CCOC(=O)/C(C#N)=N\\Nc1ccc(-n2c(C)nc3ccc(Br)cc3c2=O)cc1", "GI50": "> 100 µM (inactive)"}
{"COMPOUND": "CC1(C)OCC(CO)(Nc2nc(N3CC3)nc(N3CC3)n2)CO1", "GI50": "20 µM (inactive)"}
{"COMPOUND": "COc1ccc(-c2cc(-c3ccccc3)c3c(n2)-c2ccccc2NC(=O)C3)cc1", "GI50": "> 100 µM (inactive)"}
{"COMPOUND": "CCOP(=O)(O)CC1OC(CO)C(O)C1O (stereo not given)", "GI50": "> 100 µM (inactive)"}
{"COMPOUND": "CC(C)CC1N=C(OCc2ccccc2)OC1=O (stereo not given)", "GI50": "> 100 µM (inactive)"}
{"COMPOUND": "N#Cc1c(Cl)cccc1Oc1ccc(S(=O)(=O)/N=C(\\NN)Nc2ccc(Cl)cc2)cc1", "GI50": "28.5 µM (inactive)"}
{"COMPOUND": "O=C1c2cccc(O)c2C(=O)c2c(OC3OC(CO)C(O)C(O)C3O)cccc21 (stereo not given)", "GI50": "51.6 µM (inactive)"}
{"COMPOUND": "Cc1cc2c(cc1Cl)Sc1nnc(Nc3ccccc3)n1S2(=O)=O", "GI50": "31.9 µM (inactive)"}
{"COMPOUND": "COc1cc2ccn3c4cc(OC)c(OC)cc4cc3c2cc1OC", "GI50": "> 100 µM (inactive)"}
{"COMPOUND": "c1ccc2c(CC3NCCN3)cccc2c1", "GI50": "> 100 µM (inactive)"}
{"COMPOUND": "CCOC(=O)/C(=N\\Nc1ccc(-n2c(C)nc3ccc(Br)cc3c2=O)cc1)C(C)=O", "GI50": "> 100 µM (inactive)"}
{"COMPOUND": "Cc1ccc2c(n1)NC(=O)C(Cc1ccccc1)(N=[N+]=[N-])C2=O (stereo not given)", "GI50": "> 100 µM (inactive)"}
{"COMPOUND": "CCSC12CC3c4cccc5c4C(CN5C(=O)c4ccccc4)CC3(O1)N(C)C2=O (stereo not given)", "GI50": "83 µM (inactive)"}
{"COMPOUND": "C=C1C(=O)OC2C1C(=O)C/C(C)=C/CCC1(C)OC21 (stereo not given)", "GI50": "17.7 µM (inactive)"}
{"COMPOUND": "O=C1C(Cl)N(c2ccc([N+](=O)[O-])cc2)C1c1c[nH]c2ccccc12 (stereo not given)", "GI50": "> 100 µM (inactive)"}
{"COMPOUND": "Clc1ccc(CCN2CCN(CCCc3ccccc3)CC2)cc1Cl", "GI50": "16.2 µM (inactive)"}
